Assay: yeast display, Sf9 membrane polyspecificity reagent, FACS + sequencing; frameworks hold sequencing errors
value_kind: polyreactivity (PSR sort gate)

Examples with answers:
| seq_string | polyreactivity (PSR sort gate) |
| --- | --- |
| QVQLVESGGGLVQAGGSLRLSCAASGFTFSWYAMGWYRQAPGKERELVAAITSGGGTNYADSVKGRFTISRDNAKNTVYLQMNSLKPEDTAVYYCAARGRWFYYLDDYWGQGTQVTVSS | low polyreactivity |
| QFQLVESGGGLVQAGGSLRLTCAASGNIFADYAMGWYRQAPGKERELVAAISRGGITSYADSVKGRFTISRDNAKNTVYLQMNSRKPEDTAVYYCATVRYDVYDSLGFGYWGQGTQVTVSS | low polyreactivity |
| QVQLVESGGGLVQAGGSLRLSCAASGSTFGANAMGWYRQAPGKEREFVAAISGSGTTTYYADSVKGRFTISRDNAKNTVYLQINSLKPEDTAVYYCAKTRKAHWLEYWGQGTQVTVSS | low polyreactivity |
| QVQLVESGGGLVQAGGSLRLICAAYGRIFQGYAMGWYRQAPGKERELVAAITLSGGSTYYADSVKGRFTISRDNAKNTVYLQMNSLKPEDTAVSYCNAYYPDEPSLYDYWGQGTQVTVSS | low polyreactivity |
| QVQLVESGGCLVQAGGSLRLSCAASGFTFHDYAMGWYRQAPGKERELVAAITKSGGRTYYADSVKGRFTISRDNAQNTVYLQMNSLKPVDTAVYYRAAKSYWGQVTQVTVSS | high polyreactivity |
| QVQLVESRGGLVQAGGSLRLSCAASGRTFEYNAMGWYRQAPGKERELVATIRYSGTSTYADSVKGRFTISRDNAKNTVYLQMNSLKPEDTAVYYCAKQVRYYGYKYNYWGQGTQVTVSS | high polyreactivity |
| QVQLVESGGGLVQAGGSLRLSCAASGRTFGWNAMGWYIQAPGKERELVAAITSGGSTSYADSVKGRFTISRDNEKNTVYLQMNCLKPEDTAVYYCAAYLGIYSRVNYWGQGTQVTVSS | low polyreactivity |
| QVQLVESGGGLVQAGGSLRLSCAASGLTFYRYAMGWYRQAPGKERELVAAITSSGRTNYADSVKGRFTISRDNAKNTVYLQMNSLKPEDTAVYYCNAVRRTFNGPGSSQGYDYWGQGTQVTVSS | high polyreactivity |

Req: Which value of polyreactivity (PSR sort gate) has been reported for QVQLVESGGGLVQAGGSLRLSCAASGLILYTYAMGWYRQAPGKERELVAALNSGGRTYSADSVKGRFTISRDNAKNTVYLQMNSLKPEDTAVYYCAADYGSRVRGFNYWGQGTQVTVSS in the records?
Resp: low polyreactivity

Req: QVQLVESGGGLVQAGGSLRLSCAASGSILGGNAMGWSRQAPGKERELVAAITFSGGGTYYADSVKGRFTISRDNAKNTVYLQMNSLKPEDTAVYYCAADKDGYTYEFDYWGQGTQVTVSS ?
Resp: low polyreactivity

Req: QVQLVESGGGLVQAGGSLRLSCAASGSIFVANAMGWYRQAPGKETELVAAISQDGGTKYYADSVKGRFTISRDNAKNTVYLQMNSLKPEDTAVYYSAAEYPSFPEDDEYDYWGQGTQVTVSS ?
Resp: low polyreactivity
